Target: truncated His-MBP-Tev-KLHDC2 (residues 1-363) (Homo sapiens, UniProt Q9Y2U9)
Construct: truncated His -MBP-Tev-KLHDC2 (residues 1-363) purified from E. coli; made in house; host or cells: E. coli
Sequence (Q9Y2U9 1-363): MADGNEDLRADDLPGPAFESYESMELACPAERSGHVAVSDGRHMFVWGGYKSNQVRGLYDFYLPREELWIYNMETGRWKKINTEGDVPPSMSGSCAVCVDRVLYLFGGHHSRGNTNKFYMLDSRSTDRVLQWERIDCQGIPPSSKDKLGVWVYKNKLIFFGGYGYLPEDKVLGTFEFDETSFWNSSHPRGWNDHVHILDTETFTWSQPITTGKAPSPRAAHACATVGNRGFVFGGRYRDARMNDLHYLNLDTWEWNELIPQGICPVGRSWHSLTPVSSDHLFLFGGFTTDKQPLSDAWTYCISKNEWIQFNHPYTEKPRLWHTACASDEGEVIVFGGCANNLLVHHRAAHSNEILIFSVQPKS
Assay: KLHDC2 FP competition binding assay
Details: 15 nM KLHDC2 (residues 1-363), 10 nM fluorescein-labeled diglycine peptide probe, read-out: KLHDC2 binding Human FP: average external IC50
Assay readout: IC50

Look over these answered cases.
| Molecule | IC50 |
| --- | --- |
| Cc1cc(-c2ccc(=O)n(CC(=O)O)c2)c(C)cc1F [I-348] | > 5 µM |
| O=C(O)Cn1cc(N2Cc3ccc(-c4cccnc4)cc3C2=O)ccc1=O [I-81] | > 5 µM |
| C[C@]1(C(=O)Nc2ccc(=O)n(CC(=O)O)c2)CCCN(c2cccnc2)C1 [I-75] | 0.5 to 5 µM |
| Cc1onc(-c2ccc(F)cc2)c1C(=O)Nc1ccc(=O)n(CC(=O)O)c1 [I-254] | > 5 µM |

Result for O=C(O)Cn1cc(N2CCc3ccc(-c4cccnc4)cc3C2=O)ccc1=O [I-89] , tested on truncated His-MBP-Tev-KLHDC2 (residues 1-363) (Homo sapiens, UniProt Q9Y2U9), IC50: 0.5 to 5 µM

Result for N#Cc1cccc(-c2ccc(=O)n(CC(=O)O)c2)c1 [I-324] , tested on truncated His-MBP-Tev-KLHDC2 (residues 1-363) (Homo sapiens, UniProt Q9Y2U9), IC50: > 5 µM

Result for O=C(O)CCN1C(=O)CCc2ccccc21 [I-229] , tested on truncated His-MBP-Tev-KLHDC2 (residues 1-363) (Homo sapiens, UniProt Q9Y2U9), IC50: > 5 µM

Result for O=C(O)Cn1cc(-c2cccc(O)c2)ccc1=O [I-368] , tested on truncated His-MBP-Tev-KLHDC2 (residues 1-363) (Homo sapiens, UniProt Q9Y2U9), IC50: > 5 µM

Result for O=C(O)Cn1cc(N2C[C@@]3(CCCN(c4cccnc4)C3)CC2=O)ccc1=O [I-17] , tested on truncated His-MBP-Tev-KLHDC2 (residues 1-363) (Homo sapiens, UniProt Q9Y2U9), IC50: > 5 µM

###

Target: truncated His-MBP-Tev-KLHDC2 (residues 1-363) (Homo sapiens, UniProt Q9Y2U9)
Construct: truncated His -MBP-Tev-KLHDC2 (residues 1-363) purified from E. coli; made in house; host or cells: E. coli
Test: KLHDC2 FP competition binding assay
Conditions: 15 nM KLHDC2 (residues 1-363), 10 nM fluorescein-labeled diglycine peptide probe, read-out: KLHDC2 binding Human FP: average external IC50
pIC50: −log10 of the molar value.
# Lookup of reported pIC50 keyed by entry

Look over these answered cases.
| Compound | Assay readout | Test value |
| --- | --- | --- |
| NC(=O)c1ccc(CN2C(=O)CCC2C(=O)O)cc1 (centres unmarked) | pIC50 | < 5.30 |
| CC1CC(C(=O)Nc2ccc(=O)n(CC(=O)O)c2)CN(c2cccnc2)C1 (centres unmarked) | pIC50 | 5.30 to 6.30 |
| O=C(O)Cn1cc(N2Cc3ccccc3C2=O)ccc1=O | pIC50 | < 5.30 |
| O=C(O)Cn1cc(NC(=O)[C@H]2CCCN(c3cccnc3)C2)ccc1=O | pIC50 | 6.30 to 7.30 |

Record summary for COc1cccc2c(N3CCC[C@H](C(=O)Nc4ccc(F)c(CC(=O)O)c4)C3)cncc12 : reported pIC50 = 6.30 to 7.30

Record summary for O=C(O)Cn1cc(-c2cccc(/C=C/c3ccccc3)c2)ccc1=O : reported pIC50 = < 5.30

Record summary for O=C(O)Cn1cc(NS(=O)(=O)c2ccccc2)ccc1=O : reported pIC50 = < 5.30

Record summary for Cn1ccc2c(-c3ccc(=O)n(CC(=O)O)c3)cccc21 : reported pIC50 = < 5.30
